- measurement_target: Sodium-dependent serotonin transporter (Rattus norvegicus)
- Sequence (P31652 whole entry): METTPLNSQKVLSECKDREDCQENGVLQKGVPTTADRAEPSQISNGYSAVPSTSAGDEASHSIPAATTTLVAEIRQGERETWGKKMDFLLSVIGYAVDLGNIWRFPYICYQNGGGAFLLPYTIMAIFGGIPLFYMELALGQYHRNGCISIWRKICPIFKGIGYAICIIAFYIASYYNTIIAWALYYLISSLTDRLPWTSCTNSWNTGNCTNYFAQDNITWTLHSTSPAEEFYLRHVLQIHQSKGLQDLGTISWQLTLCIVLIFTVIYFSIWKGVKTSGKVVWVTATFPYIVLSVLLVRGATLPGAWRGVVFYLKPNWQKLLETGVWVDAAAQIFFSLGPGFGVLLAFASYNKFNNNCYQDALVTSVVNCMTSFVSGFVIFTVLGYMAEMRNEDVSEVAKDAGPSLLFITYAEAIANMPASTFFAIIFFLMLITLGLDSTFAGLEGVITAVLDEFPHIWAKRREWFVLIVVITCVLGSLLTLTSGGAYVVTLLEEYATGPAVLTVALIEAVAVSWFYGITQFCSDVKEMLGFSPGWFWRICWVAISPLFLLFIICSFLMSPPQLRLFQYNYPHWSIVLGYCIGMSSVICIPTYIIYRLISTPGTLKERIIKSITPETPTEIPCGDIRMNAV
- assay_explanation: Displacement of [125I]beta-CIT from rat SERT expressed in HeLa cells
- Assay type: cell-based
observation_type: IC50 (µM)
Report as a plain number; the unit µM is understood.

Answer with the recorded IC50 of CC[C@H]1C[C@@H]2C[C@H]3c4[nH]c5ccc(OC)cc5c4CCN(C2)[C@@H]13 only.
2.5

* * *

observation_type: pKd
Value format note: pKd is -log10 of concentration (mol/L); just state the number.

Consider the compound COC(=O)[C@H]1[C@@H](c2ccc(I)cc2)C[C@@H]2CC[C@H]1N2C tested on Sodium-dependent serotonin transporter (Homo sapiens); state its pKd.
Sequence (P31645 whole entry): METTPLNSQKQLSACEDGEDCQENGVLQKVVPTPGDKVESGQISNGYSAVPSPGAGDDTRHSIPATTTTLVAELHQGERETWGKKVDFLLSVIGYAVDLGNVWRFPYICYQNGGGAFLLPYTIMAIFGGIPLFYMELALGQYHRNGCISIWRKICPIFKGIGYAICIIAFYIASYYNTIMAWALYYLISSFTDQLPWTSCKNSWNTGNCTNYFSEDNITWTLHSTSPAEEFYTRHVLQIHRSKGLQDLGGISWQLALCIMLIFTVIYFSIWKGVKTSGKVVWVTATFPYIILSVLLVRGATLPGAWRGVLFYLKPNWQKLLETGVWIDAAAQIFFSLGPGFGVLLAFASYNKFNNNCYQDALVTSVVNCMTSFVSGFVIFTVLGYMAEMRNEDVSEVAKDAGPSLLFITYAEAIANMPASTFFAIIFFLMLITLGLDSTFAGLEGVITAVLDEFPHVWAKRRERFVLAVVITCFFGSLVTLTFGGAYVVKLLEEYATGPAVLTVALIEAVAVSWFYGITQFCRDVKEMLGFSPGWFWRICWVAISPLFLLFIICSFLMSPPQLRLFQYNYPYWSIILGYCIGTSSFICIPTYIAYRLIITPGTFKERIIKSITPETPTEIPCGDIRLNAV
9.06
